- target_or_test_system: T1, cynomolgus PD-L1-Fc (SinoBiological) (cynomolgus, UniProt G7PSE7 19-238)
- T1 construct: Bought; also called Cyno PD-L1; not shown: Fc carrier (and any linker) of the bought SinoBiological fusion
- T1 sequence (G7PSE7 entry or part of it limits assumed): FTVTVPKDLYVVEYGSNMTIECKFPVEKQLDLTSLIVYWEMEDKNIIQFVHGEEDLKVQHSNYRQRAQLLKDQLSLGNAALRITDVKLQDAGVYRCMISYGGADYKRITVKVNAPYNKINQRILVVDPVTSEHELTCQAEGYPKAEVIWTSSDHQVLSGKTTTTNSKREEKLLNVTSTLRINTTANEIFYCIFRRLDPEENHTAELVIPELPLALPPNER
- test_protocol: BLI (Octet RED96), VHH on Penta-HIS sensor, cynomolgus PD-L1-Fc in solution
Measured koff accompanies every entry in the list below.
endpoint_label: koff

INSERT INTO measurements (binder, test_result) VALUES
  ('2LIG27 VHH-(His)6 (pHEN6C-PelB-PD-L1 VHH-(His)6) (VHH) VHH: QVQLQESGGGVVQAGGSLRLSCTASGTIFSINRMDWFRQAPGKQRELVALITSDGTPTYADSAKGRFTISRDNTKKTVSLQMNSLKPEDTAVYYCHVSSGVYNYWGQGTQVTVSS', '0.0028 s⁻¹'),
  ('2LIG99 VHH-(His)6 (pHEN6C-PelB-PD-L1 VHH-(His)6) (VHH) VHH: QVQLQESGGGLVQAGGSLRLSCTASGTIFSINRMDWFRQAPGKQRELVALITSDGTPAYADSAKGRFTISRDNTKKTVSLQMNSLKPEDTAVYYCHVSSGVYNYWGQGTQVTVSS', '0.000585 s⁻¹'),
  ('2LIG3 VHH-(His)6 (pHEN6C-PelB-PD-L1 VHH-(His)6) (VHH) VHH: QVQLQESGGGLVQAGGSLRLSCTASGTIFSINHMDWFRQAPGKQRELVALITSDGFPTYADSAKGRFTISRDNTKKTVSLQMNSLKPEDTAVYYCHVSSGVYNYWGQGTQVTVSS', '0.000318 s⁻¹'),
  ('2LIG176 VHH-(His)6 (pHEN6C-PelB-PD-L1 VHH-(His)6) (VHH) VHH: QVQLQESGGGLVQAGGSLRLSCAASESIFSIEAMGWYRQAPGKQRELVAAIFGGGFTNYADSVKGRFTISRDNANRTVYLQMNSLKPEDTAVYYCNADLVSGSSRLYDYWGQGTQVTVSS', '0.00573 s⁻¹'),
  ('3LIG8 VHH-(His)6 (pHEN6C-PelB-PD-L1 VHH-(His)6) (VHH) VHH: QVQLQESGGGLVQPGGSLRLSCTASGTIFSINRMDWFRQAPGKQRELVALITSDGTPTYADSAKGRFTISRDNTKKTVSLQMNSLKPEDTAVYYCHVSSGVYNYWGQGTQVTVSS', '0.00305 s⁻¹'),
  ('2LIG189 VHH-(His)6 (pHEN6C-PelB-PD-L1 VHH-(His)6) (VHH) VHH: QVQLQESGGGLVQAGGSLRLSCAASGKIFSGNDMGWYRQAPGKQRELVGIITSGGITDYADAVKGRFTISRDNAKNMMYLQMNSLKPEDTAVYYCNMRDRTIWWGQGTQVTVSS', '0.000437 s⁻¹'),
  ('2LIG97 VHH-(His)6 (pHEN6C-PelB-PD-L1 VHH-(His)6) (VHH) VHH: QVQLQESGGGLVQAGESLRLSCTASGTIFSINRMDWFRQAPGKQRELVALITSDGTPTYADSAKGRFTISRDNTKKTVSLQMNSLKPEDTAVYYCHVSSGVYNYWGQGTQVTVSS', '0.00293 s⁻¹');
